Assay: chemical genetic growth profiling, strain panel (AID 1159580);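 also: tested at 20 µM; growth read once vehicle control cultures reached saturation at 30 °C; 1 = growth at the plate median or of vehicle wells; lower values mean less growth of the strain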
Settings: S. cerevisiae deletion strains, growth OD, locus YCL061C, strain MRC1, hits give low values
Out of some 5,500 compounds screened, about 2,000 (36%) were called active. Roughly 18% stayed inconclusive and do not appear here. Some of the results follow.
measured_metric: normalized growth
// return just the number, without any unit appended

Answered cases to consult:
compound=CC(=O)CS(=O)(=O)c1ccc(Cl)cc1 readout_value=1.01
compound=O=C1NC(=S)NC(=O)C1=Cc1cccc2ccccc12 readout_value=0.97
compound=COc1cc2c(cc1OC)-c1c(oc3cc(O)cc(O)c3c1=O)CO2 readout_value=1.01

normalized growth in this record for `NC(=O)c1ccccc1O` : 0.963

normalized growth in this record for `C=CCSCC=C` : 0.972

normalized growth in this record for `O=C(/C=C(\O)c1ccccc1)c1ccccc1O` : 0.812

normalized growth in this record for CC12CCC(=O)C=C1CCc1ccccc12 (centres undefined) : 0.977

normalized growth in this record for CC1(C)Oc2ccc3ccc(=O)oc3c2CC1O (centres undefined) : 0.989

---

Experiment: chemical genetic growth profiling, strain panel (AID 1159580)
Settings: S. cerevisiae deletion strains, growth OD, locus YIL147C, strain SLN1, hits give low values
The campaign covered roughly 5,500 compounds. About 2,000 (36%) were called active. Another 18% or so got no clear call; they are omitted. This is one part of the list.
measured_metric: normalized growth
// return just the number, without any unit appended

molecule=N#Cc1nccnc1N1CCN(C(=O)Nc2cc(Cl)cc(Cl)c2)CC1 readout_value=0.966
molecule=O=C1Nc2ccccc2/C1=C\c1cccc2ccccc12 readout_value=0.968
molecule=N#C/C(N=Cc1cc(Cl)cc(Cl)c1O)=C(\C#N)N=Cc1cc(Cl)cc(Cl)c1O readout_value=0.914
molecule=N/C(=N/OC(=O)c1ccc([N+](=O)[O-])cc1)c1c(Cl)cccc1Cl readout_value=0.94
molecule=O=C(O/N=C1/CCCc2[nH]c3ccccc3c21)c1ccc(Cl)cc1Cl readout_value=0.976
molecule=CO/N=C1/CC(C)(C)Cc2c(-c3ccn(C(=O)Nc4cccc(Cl)c4)n3)sc(SC)c21 readout_value=0.972

normalized growth in this record for Clc1cccc(Cl)c1C1CC(c2ccccc2)=Nc2ccccc2S1 (stereo not drawn) : 0.981

normalized growth in this record for `O=C1Nc2ccccc2/C1=C\c1c[nH]c2ccccc12` : 0.814

normalized growth in this record for `CC1(C)C=Cc2cc(/C(N)=N\OC(=O)Nc3cccc(C(F)(F)F)c3)ccc2O1` : 0.98

normalized growth in this record for `O=C(OCc1ccccc1Br)c1cc([N+](=O)[O-])cc([N+](=O)[O-])c1` : 0.976

normalized growth in this record for `O=C(NNc1cc(C(F)(F)F)cc(C(F)(F)F)c1)c1cnc2n(c1=O)CCS2` : 0.988

normalized growth in this record for `COc1ccc(Br)c(C(=O)/C(C#N)=C/c2cccs2)c1` : 0.919

normalized growth in this record for `O=C(NC(=S)NNc1ncc(C(F)(F)F)cc1Cl)c1cccs1` : 0.609

normalized growth in this record for `FC(F)(F)Sc1ccc(OCc2n[nH]c(=S)n2-c2ccccc2)cc1` : 0.984

normalized growth in this record for `CN(C)/C=C1\CSc2ccc(Cl)cc2C1=O` : 0.928

normalized growth in this record for `O=C1OC(c2ccccc2)=C/C1=C/c1ccccc1` : 0.955

normalized growth in this record for `O=C(O/N=C1/CCCc2[nH]c3ccccc3c21)C1CCCCC1` : 0.962

normalized growth in this record for `ONC(=Nc1ccccc1Cl)c1ccccc1Cl` : 0.983

normalized growth in this record for `O=c1cc(CSc2ccc(Cl)cc2)c2ccc(O)cc2o1` : 0.95

normalized growth in this record for COc1ccccc1N1CCN(C(=O)C(C)c2ccc(CC(C)C)cc2)CC1 (stereo not drawn) : 0.981

normalized growth in this record for `Cc1cc(Br)c(O)c(/C=N\NC(=S)NC(C)(C)C)c1` : 0.981

normalized growth in this record for `C/C(=N/NC(N)=S)c1csc(-c2ccccc2)n1` : 0.937

normalized growth in this record for `COC(=O)/C=C1/OC(c2ccc(OC)cc2)=CC1=O` : 0.978

---

Assay: chemical genetic growth profiling, strain panel (AID 1159580);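 also: tested at 20 µM; growth read once vehicle control cultures reached saturation at 30 °C; 1 = growth at the plate median or of vehicle wells; lower values mean less growth of the strain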
Conditions: S. cerevisiae deletion strains, growth OD, locus YDR388W, hits give low values
The campaign covered roughly 5,500 compounds. About 2,000 (36%) were called active. Roughly 18% stayed inconclusive and do not appear here. Some of the results follow.
In this section, each of the compounds is paired with its reported normalized growth.
// return just the number, without any unit appended

Answered cases to consult:
compound="C/C=C/CC(C)C(O)C1C(=O)NC(CC)C(=O)N(C)CC(=O)N(C)C(CC(C)C)C(=O)NC(C(C)C)C(=O)N(C)C(CC(C)C)C(=O)NC(C)C(=O)NC(C)C(=O)N(C)C(CC(C)C)C(=O)N(C)C(CC(C)C)C(=O)N(C)C(C(C)C)C(=O)N1C (stereo not drawn)" readout_value=1.03
compound="CC1(C)S[C@@H]2[C@H](NC(=O)C(C(=O)O)c3ccccc3)C(=O)N2[C@H]1C(=O)O (stereo partly drawn)" readout_value=0.995
compound="CCC(=O)O[C@]1(C(=O)CCl)[C@@H](C)CC2C3CCC4=CC(=O)C=C[C@]4(C)[C@@]3(F)[C@@H](O)C[C@@]21C (stereo partly drawn)" readout_value=0.987
compound="CCC(=O)OCC(=O)[C@@]1(OC(=O)CC)[C@@H](C)CC2C3CCC4=CC(=O)C=C[C@]4(C)C3(F)[C@@H](O)C[C@@]21C (stereo partly drawn)" readout_value=0.947

Attention now shifts to the item below.
normalized growth in this record for `COc1cc(C)c2c(=O)c3c(O)cc(O)cc3oc2c1` : 0.941

---

In this section, each of the compounds is paired with its reported normalized growth.
Assay: chemical genetic growth profiling, strain panel (AID 1159580);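 also: tested at 20 µM; growth read once vehicle control cultures reached saturation at 30 °C; 1 = growth at the plate median or of vehicle wells; lower values mean less growth of the strain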
Conditions: S. cerevisiae deletion strains, growth OD, locus YKL160W, strain elf1, hits give low values
The whole screen tested about 5,500 compounds, of which about 2,000 (36%) were called active. About 18% were inconclusive and are not listed. The list shows a part of the results.
// return just the number, without any unit appended

compound=NC(=O)c1ccc([N+](=O)[O-])cc1Cl measured_metric="normalized growth" readout_value=1.03
compound="C[C@H]1O[C@@H](O[C@H]2[C@@H](O)C[C@H](O[C@H]3[C@@H](O)C[C@H](O[C@H]4CC[C@]5(C)C6C[C@@H](O)[C@]7(C)[C@@H](C8=CC(=O)OC8)CC[C@]7(O)C6CC[C@@H]5C4)O[C@@H]3C)O[C@@H]2C)C[C@H](O)[C@@H]1O (some centres not stated)" measured_metric="normalized growth" readout_value=0.93
compound="COC1CC(OC2CCC3(C)C(CCC4C3CCC3(C)C(C5=CC(=O)OC5)C(OC(C)=O)CC43O)C2)OC(C)C1O (configuration not stated)" measured_metric="normalized growth" readout_value=1.01

normalized growth in this record for `NC(=O)c1cc([N+](=O)[O-])cc([N+](=O)[O-])c1` : 1.01

normalized growth in this record for `Cc1c(C(N)=O)cc([N+](=O)[O-])cc1[N+](=O)[O-]` : 0.988

normalized growth in this record for `NC[C@H]1O[C@H](O[C@H]2[C@H](O)[C@@H](O[C@H]3O[C@H](CO)[C@@H](O)[C@H](N)[C@H]3O)[C@H](N)C[C@@H]2N)[C@H](N)[C@@H](O)[C@@H]1O` : 0.994

normalized growth in this record for C[C@]12CCC3C(CC[C@]4(O)C[C@@H](O)CC[C@]34C=O)[C@@]1(O)CCC2C1=CC(=O)OC1 (some centres not stated) : 0.972

---

Experiment: chemical genetic growth profiling, strain panel (AID 1159580);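 also: tested at 20 µM; growth read once vehicle control cultures reached saturation at 30 °C; 1 = growth at the plate median or of vehicle wells; lower values mean less growth of the strain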
Settings: S. cerevisiae deletion strains, growth OD, locus YGR052W, strain FMP48, hits give low values
Out of some 5,500 compounds screened, about 2,000 (36%) were called active. About 18% were inconclusive and are not listed. This is one part of the list.
Rule: measured normalized growth below 1 gets true; anything equal to or greater than 1 gets false.

Report whether reported normalized growth is lower than 1 (strictly) for `O=C1/C(=C/c2c[nH]c3ccccc23)CSc2ccccc21`
false

Report whether reported normalized growth is lower than 1 (strictly) for `O=C(O/N=C1/CCCc2[nH]c3ccccc3c21)C1CCCCC1`
true

Report whether reported normalized growth is lower than 1 (strictly) for `COc1ccc(Br)c(C(=O)/C(C#N)=C/c2cccs2)c1`
true

Report whether reported normalized growth is lower than 1 (strictly) for `ONC(=Nc1ccccc1Cl)c1ccccc1Cl`
true

Report whether reported normalized growth is lower than 1 (strictly) for `N#Cc1ccc2[nH]cc(CCN(Cc3ccccc3)Cc3ccccc3)c2c1`
false

Report whether reported normalized growth is lower than 1 (strictly) for `C/C(=N/NC(N)=S)c1csc(-c2ccccc2)n1`
true

Report whether reported normalized growth is lower than 1 (strictly) for OC(COCc1ccccc1)Cn1c2ccccc2c2ccccc21 (configuration not stated)
true

Report whether reported normalized growth is lower than 1 (strictly) for `O=C1OC(c2ccccc2)=C/C1=C/c1ccccc1`
true

Report whether reported normalized growth is lower than 1 (strictly) for `CCn1nc(C)cc1C(=O)Sc1cccc(Br)c1`
true

Report whether reported normalized growth is lower than 1 (strictly) for `O=S(=O)(c1cc(Cl)ccc1Cl)N1CCc2ccccc2C1`
false

Report whether reported normalized growth is lower than 1 (strictly) for `N/C(=N/OC(=O)c1ccc([N+](=O)[O-])cc1)c1c(Cl)cccc1Cl`
true

Report whether reported normalized growth is lower than 1 (strictly) for COc1ccccc1N1CCN(C(=O)C(C)c2ccc(CC(C)C)cc2)CC1 (configuration not stated)
true

Report whether reported normalized growth is lower than 1 (strictly) for `COC(=O)/C=C1/OC(c2ccc(OC)cc2)=CC1=O`
true

Report whether reported normalized growth is lower than 1 (strictly) for `N#C/C(N=Cc1cc(Cl)cc(Cl)c1O)=C(\C#N)N=Cc1cc(Cl)cc(Cl)c1O`
true

Report whether reported normalized growth is lower than 1 (strictly) for `CN1/C(=C/C=C/c2ccc3ccccc3[n+]2C)C=Cc2ccccc21`
true

Report whether reported normalized growth is lower than 1 (strictly) for `CC(C)/C(=N/OC(=O)c1ccc([N+](=O)[O-])cc1)c1ccccc1`
true

Report whether reported normalized growth is lower than 1 (strictly) for `CCOC(=O)NC(=S)Nc1ccc(C(C)(C)C)cc1NC(=S)NC(=O)OCC`
false
